- tgt: Glucocorticoid Receptor (GR) (Homo sapiens)
- Construct: Cells were transfected the next day with MMTV-Luc (5 μg) and pGL4-hRLuc (0.1 μg); endogenous in cells; host or cells: HeLa
- assay-details: Transactivation assay (MMTV-Luc reporter in HeLa cells)
- Assay type: cell-based
- condition-notes: HeLa, 16 h; read-out: TA Max %
test-readout: Emax (%)
Give bare numbers, in %.

Please review the following examples before continuing.
C[C@@H]1C[C@H]2[C@@H]3CCC4=CC(=O)C=C[C@]4(C)[C@@]3(F)[C@@H](O)C[C@]2(C)[C@@]1(O)C(=O)NCCCc1ccccc1    36.5
C[C@@H]1C[C@H]2[C@@H]3CCC4=CC(=O)C=C[C@]4(C)[C@@]3(F)[C@@H](O)C[C@]2(C)[C@@]1(O)C(=O)NCCCOc1ccc(F)cc1    16

Kindly review the next molecule as well.
What value of Emax has been reported for the following molecule? `COc1ccc(OCCNC(=O)[C@@]2(O)[C@H](C)C[C@H]3[C@@H]4CCC5=CC(=O)C=C[C@]5(C)[C@@]4(F)[C@@H](O)C[C@@]32C)cc1`
44

====

- tgt: Glucocorticoid Receptor (GR) (Homo sapiens, UniProt P04150)
- Construct: Cells were transfected the next day with MMTV-Luc (5 μg) and pGL4-hRLuc (0.1 μg); endogenous in cells
- Sequence (P04150 whole entry): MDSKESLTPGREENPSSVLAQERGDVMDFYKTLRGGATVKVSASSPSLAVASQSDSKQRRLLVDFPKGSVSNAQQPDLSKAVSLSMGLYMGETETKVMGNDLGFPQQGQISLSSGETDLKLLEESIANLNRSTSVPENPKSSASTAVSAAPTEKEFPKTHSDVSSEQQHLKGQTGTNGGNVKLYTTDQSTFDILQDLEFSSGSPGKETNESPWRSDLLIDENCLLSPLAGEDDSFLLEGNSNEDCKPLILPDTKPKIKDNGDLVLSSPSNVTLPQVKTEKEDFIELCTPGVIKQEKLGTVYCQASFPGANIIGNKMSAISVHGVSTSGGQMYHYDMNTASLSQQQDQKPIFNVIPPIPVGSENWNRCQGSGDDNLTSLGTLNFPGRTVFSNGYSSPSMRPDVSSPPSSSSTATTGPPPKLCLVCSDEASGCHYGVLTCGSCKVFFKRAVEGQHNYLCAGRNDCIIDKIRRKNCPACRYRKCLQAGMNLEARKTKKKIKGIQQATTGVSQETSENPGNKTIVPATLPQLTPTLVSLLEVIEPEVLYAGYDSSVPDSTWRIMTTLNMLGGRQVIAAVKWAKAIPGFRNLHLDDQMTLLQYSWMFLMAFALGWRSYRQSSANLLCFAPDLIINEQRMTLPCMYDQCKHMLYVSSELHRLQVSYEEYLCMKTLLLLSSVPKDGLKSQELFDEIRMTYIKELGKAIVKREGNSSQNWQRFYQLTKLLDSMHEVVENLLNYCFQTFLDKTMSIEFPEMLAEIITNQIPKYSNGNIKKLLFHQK
- assay-details: Transactivation assay (MMTV-Luc reporter in HeLa cells)
- condition-notes: concentration for half-maximal transactivation; HeLa, MMTV-Luc, 16 hours; mean; read-out: TA EC50
# label = Met if EC50 < 1 µM else Not met

Some solved entries appear below for comparison.
C[C@@H]1C[C@H]2[C@@H]3CCC4=CC(=O)C=C[C@]4(C)[C@@]3(F)[C@@H](O)C[C@]2(C)[C@@]1(O)c1csc(N(C)C(=O)c2ccc(F)cc2)n1 [Compound 43]    Not met
C[C@@H]1C[C@H]2[C@@H]3CCC4=CC(=O)C=C[C@]4(C)[C@@]3(F)[C@@H](O)C[C@]2(C)[C@@]1(O)C(=O)NCCCc1ccccn1 [Compound 2]    Not met
COc1cccc(OCCCNC(=O)[C@@]2(O)[C@H](C)C[C@H]3[C@@H]4CCC5=CC(=O)C=C[C@]5(C)[C@@]4(F)[C@@H](O)C[C@@]32C)c1 [Compound 15]    Not met

# strict comparison: is reported EC50 < 1 µM? input = C[C@@H]1C[C@H]2[C@@H]3CCC4=CC(=O)C=C[C@]4(C)[C@@]3(F)[C@@H](O)C[C@]2(C)[C@@]1(O)C(=O)NCCCc1ccccc1 [Compound 11]
Met

Follow-up entry: C[C@@H]1C[C@H]2[C@@H]3CCC4=CC(=O)C=C[C@]4(C)[C@@]3(F)[C@@H](O)C[C@]2(C)[C@@]1(O)c1csc(NC(=O)CCc2ccc(F)cc2)n1 [Compound 38]
Not met

====

Task for the reader: assign each of the following compounds its reported log10 of EC50.
- tgt: Glucocorticoid Receptor (GR) (Homo sapiens, UniProt P04150)
- Construct: Cells were transfected the next day with MMTV-Luc (5 μg) and pGL4-hRLuc (0.1 μg); endogenous in cells
- assay-details: Transactivation assay (MMTV-Luc reporter in HeLa cells)
- condition-notes: concentration for half-maximal transactivation; HeLa, MMTV-Luc, 16 hours; mean; read-out: TA EC50
All values: log10 EC50 [nM].

C[C@@H]1C[C@H]2[C@@H]3CCC4=CC(=O)C=C[C@]4(C)[C@@]3(F)[C@@H](O)C[C@]2(C)[C@@]1(O)C(=O)NCCOc1ccc(F)cc1    2.51
C[C@@H]1C[C@H]2[C@@H]3CCC4=CC(=O)C=C[C@]4(C)[C@@]3(F)[C@@H](O)C[C@]2(C)[C@@]1(O)c1csc(NC(=O)c2ccc(C(F)(F)F)cc2)n1    3.15
C[C@@H]1C[C@H]2[C@@H]3CCC4=CC(=O)C=C[C@]4(C)[C@@]3(F)[C@@H](O)C[C@]2(C)[C@@]1(O)c1csc(NC(=O)c2cscn2)n1    3.74
C[C@@H]1C[C@H]2[C@@H]3CCC4=CC(=O)C=C[C@]4(C)[C@@]3(F)[C@@H](O)C[C@]2(C)[C@@]1(O)C(=O)NCCCOc1ccc(C(F)(F)F)cc1    3.05
C[C@@H]1C[C@H]2[C@@H]3CCC4=CC(=O)C=C[C@]4(C)[C@@]3(F)[C@@H](O)C[C@]2(C)[C@@]1(O)c1csc(NC(=O)c2cnco2)n1    4.01

I would be grateful if you could provide log10 of EC50 for each of the following entries.
1. C[C@@H]1C[C@H]2[C@@H]3CCC4=CC(=O)C=C[C@]4(C)[C@@]3(F)[C@@H](O)C[C@]2(C)[C@@]1(O)c1csc(NC(=O)c2ccc3ncsc3c2)n1
2. C[C@@H]1C[C@H]2[C@@H]3CCC4=CC(=O)C=C[C@]4(C)[C@@]3(F)[C@@H](O)C[C@]2(C)[C@@]1(O)c1csc(NC(=O)Cc2ccc(F)cc2)n1
3. C[C@@H]1C[C@H]2[C@@H]3CCC4=CC(=O)C=C[C@]4(C)[C@@]3(F)[C@@H](O)C[C@]2(C)[C@@]1(O)C(=O)NCCOc1ccccn1

[3.06, 3.89, 2.39]

What value of log10 of EC50 has been reported for the following compound? `C[C@@H]1C[C@H]2[C@@H]3CCC4=CC(=O)C=C[C@]4(C)[C@@]3(F)[C@@H](O)C[C@]2(C)[C@@]1(O)C(=O)NCCOc1nc2ccccc2o1`
3.53

Source of measurements: patent US20170044208A1
